- SYSTEM: Dipeptidyl peptidase 8 (Homo sapiens, UniProt Q6V1X1)
- Sequence (Q6V1X1 whole entry): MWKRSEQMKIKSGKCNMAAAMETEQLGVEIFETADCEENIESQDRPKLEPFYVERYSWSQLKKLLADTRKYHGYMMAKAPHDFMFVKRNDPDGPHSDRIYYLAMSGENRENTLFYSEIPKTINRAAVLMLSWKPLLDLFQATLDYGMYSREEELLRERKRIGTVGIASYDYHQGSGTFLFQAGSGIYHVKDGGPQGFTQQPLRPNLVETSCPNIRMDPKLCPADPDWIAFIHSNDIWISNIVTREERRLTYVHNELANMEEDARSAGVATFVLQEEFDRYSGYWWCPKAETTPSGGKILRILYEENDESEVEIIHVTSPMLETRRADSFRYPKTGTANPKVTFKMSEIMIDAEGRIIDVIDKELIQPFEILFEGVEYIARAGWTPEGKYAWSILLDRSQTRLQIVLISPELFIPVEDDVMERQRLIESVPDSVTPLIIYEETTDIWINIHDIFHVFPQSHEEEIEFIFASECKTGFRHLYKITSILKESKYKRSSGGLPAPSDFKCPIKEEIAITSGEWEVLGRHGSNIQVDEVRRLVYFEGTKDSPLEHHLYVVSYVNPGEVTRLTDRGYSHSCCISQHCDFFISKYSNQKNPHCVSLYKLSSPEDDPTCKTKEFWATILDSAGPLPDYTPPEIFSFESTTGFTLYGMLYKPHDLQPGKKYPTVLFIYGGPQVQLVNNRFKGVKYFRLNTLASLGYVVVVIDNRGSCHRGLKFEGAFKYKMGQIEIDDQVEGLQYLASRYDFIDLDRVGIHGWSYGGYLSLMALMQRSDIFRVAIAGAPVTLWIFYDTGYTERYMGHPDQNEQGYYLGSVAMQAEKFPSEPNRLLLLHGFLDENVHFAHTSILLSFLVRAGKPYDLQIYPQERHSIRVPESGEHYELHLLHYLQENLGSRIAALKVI
QUANTITY MEASURED: Ki

Query NC1CN(c2cc(-c3cccc(C(=O)O)c3)ncn2)CC1c1cc(F)c(F)cc1F (stereo unspecified) on Dipeptidyl peptidase 8 (Homo sapiens, UniProt Q6V1X1); Ki returned: > 3 µM

###

- SYSTEM: Dipeptidyl peptidase 9 (Homo sapiens)
- Sequence (Q86TI2 whole entry): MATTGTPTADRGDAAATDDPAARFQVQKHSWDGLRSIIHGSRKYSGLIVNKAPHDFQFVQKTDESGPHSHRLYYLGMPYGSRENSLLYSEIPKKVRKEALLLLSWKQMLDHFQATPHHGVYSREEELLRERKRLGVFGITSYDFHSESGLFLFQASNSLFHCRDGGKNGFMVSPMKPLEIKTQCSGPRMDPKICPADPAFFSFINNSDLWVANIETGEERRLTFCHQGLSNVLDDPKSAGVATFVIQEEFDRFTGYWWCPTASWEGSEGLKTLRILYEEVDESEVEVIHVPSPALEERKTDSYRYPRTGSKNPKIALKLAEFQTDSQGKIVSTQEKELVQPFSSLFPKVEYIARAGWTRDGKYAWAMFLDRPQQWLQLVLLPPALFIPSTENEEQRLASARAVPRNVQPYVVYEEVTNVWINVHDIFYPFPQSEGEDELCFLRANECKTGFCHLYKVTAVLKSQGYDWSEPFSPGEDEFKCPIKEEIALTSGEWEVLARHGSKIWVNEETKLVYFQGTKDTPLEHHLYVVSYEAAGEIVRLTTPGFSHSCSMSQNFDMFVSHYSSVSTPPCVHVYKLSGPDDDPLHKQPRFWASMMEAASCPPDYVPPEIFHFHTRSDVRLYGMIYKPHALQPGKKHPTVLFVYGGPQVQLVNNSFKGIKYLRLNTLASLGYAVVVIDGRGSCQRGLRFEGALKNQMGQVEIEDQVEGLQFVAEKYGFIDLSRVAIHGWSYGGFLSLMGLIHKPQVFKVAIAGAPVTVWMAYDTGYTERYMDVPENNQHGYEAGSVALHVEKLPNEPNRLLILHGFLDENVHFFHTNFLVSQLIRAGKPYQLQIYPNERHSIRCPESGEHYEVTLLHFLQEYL
QUANTITY MEASURED: Ki

compound NC1CN(c2cc(-c3cccc(C(=O)O)c3)ncn2)CC1c1cc(F)c(F)cc1F (stereo unspecified) , Ki observed: > 3 µM

###

- ASSAY OVERVIEW: Oral bioavailability in Sprague-Dawley rat at 5 mg/kg, po
- Assay type: ADME, organism-based
- SETTINGS: in vivo
QUANTITY MEASURED: bioavailability (%)

{"COMPOUND": "CS(=O)(=O)c1cccc(-c2cc(N3CC(N)C(c4cc(F)c(F)cc4F)C3)ncn2)c1 (stereo not given)", "OUTPUT UNIT": "%", "bioavailability": 110}

a: NC1CN(c2cc(-c3cccc(C(=O)O)c3)ncn2)CC1c1cc(F)c(F)cc1F (stereo not given)
b: CS(=O)(=O)c1cccc(-c2ncnc(N3CC(N)C(c4cc(F)c(F)cc4F)C3)n2)c1 (stereo not given)
Exercise: Of a and b , which one carries the higher reported bioavailability? Refer to your chosen item by its label in the answer.
Solution: b

a: CN(C)C(=O)c1cccc(-c2cc(N3CC(N)C(c4cc(F)c(F)cc4F)C3)ncn2)c1 (stereo not given)
b: NC1CN(c2cc(-c3cccc(S(=O)(=O)N4CCOCC4)c3)ncn2)CC1c1cc(F)c(F)cc1F (stereo not given)
Exercise: Hi there! Just curious which has the higher bioavailability between a and b . Which one? Tell me its label.
Solution: a

###

- ASSAY OVERVIEW: Plasma clearance in Sprague-Dawley rat at 5 mg/kg, po
- Assay type: ADME, organism-based
- Parameters: dose 5 mg/kg, route oral
QUANTITY MEASURED: CL/F (mL/min/kg)

a: CS(=O)(=O)c1cccc(-c2ncnc(N3CC(N)C(c4cc(F)c(F)cc4F)C3)n2)c1 (stereo not given)
b: CN(C)C(=O)c1cccc(-c2cc(N3CC(N)C(c4cc(F)c(F)cc4F)C3)ncn2)c1 (stereo not given)
c: NC1CN(c2cc(-c3cccc(C(=O)O)c3)ncn2)CC1c1cc(F)c(F)cc1F (stereo not given)
d: CS(=O)(=O)c1cccc(-c2cc(N3CC(N)C(c4cc(F)c(F)cc4F)C3)ncn2)c1 (stereo not given)
e: NC1CN(c2cc(-c3cccc(S(=O)(=O)N4CCOCC4)c3)ncn2)CC1c1cc(F)c(F)cc1F (stereo not given)
Exercise: // rank the listed molecules by CL/F, lowest value first Please, when replying, give the labels in the order that was requested.
Solution: a, d, b, c, e
(a: 2.5 mL/min/kg, d: 4.33 mL/min/kg, b: 12.2 mL/min/kg, c: 18.3 mL/min/kg, e: 34.8 mL/min/kg)

###

- System: Rattus norvegicus
- ASSAY OVERVIEW: AUC in Sprague-Dawley rat at 5 mg/kg, po
- Assay type: ADME, organism-based, Plasma
- Set-up: dose 5 mg/kg, route oral
- SETTINGS: in vivo
QUANTITY MEASURED: AUC (ng·h/mL)

Reference set (3 entries):
{"COMPOUND": "CS(=O)(=O)c1cccc(-c2ncnc(N3CC(N)C(c4cc(F)c(F)cc4F)C3)n2)c1 (stereo not given)", "AUC, ng·h/mL": 24400}
{"COMPOUND": "CS(=O)(=O)c1cccc(-c2cc(N3CC(N)C(c4cc(F)c(F)cc4F)C3)ncn2)c1 (stereo not given)", "AUC, ng·h/mL": 22000}
{"COMPOUND": "NC1CN(c2cc(-c3cccc(C(=O)O)c3)ncn2)CC1c1cc(F)c(F)cc1F (stereo not given)", "AUC, ng·h/mL": 652}

a: CN(C)C(=O)c1cccc(-c2cc(N3CC(N)C(c4cc(F)c(F)cc4F)C3)ncn2)c1 (stereo not given)
b: NC1CN(c2cc(-c3cccc(S(=O)(=O)N4CCOCC4)c3)ncn2)CC1c1cc(F)c(F)cc1F (stereo not given)
Exercise: Hi there, can you help? I need to know whether a or b has lower measured AUC. Lab note: record the label of whichever item you select.
Solution: b
(b: 515 ng·h/mL, a: 3140 ng·h/mL)

###

As a worked illustration, we turn to IC50 data collected for Cytochrome P450 2D6 (Homo sapiens).

See these solved cases before continuing.
{"COMPOUND": "CS(=O)(=O)c1cccc(-c2ncnc(N3CC(N)C(c4cc(F)c(F)cc4F)C3)n2)c1 (centres undefined)", "SYSTEM": "Cytochrome P450 2D6 (Homo sapiens)", "RECORDED VALUE": "> 10 µM"}
{"COMPOUND": "NC1CN(c2cc(-c3cccc(C(=O)O)c3)ncn2)CC1c1cc(F)c(F)cc1F (centres undefined)", "SYSTEM": "Cytochrome P450 2D6 (Homo sapiens)", "RECORDED VALUE": "> 10 µM"}
{"COMPOUND": "NC1CN(c2cc(-c3ccsc3)ncn2)CC1c1cc(F)c(F)cc1F (racemic)", "SYSTEM": "Cytochrome P450 2D6 (Homo sapiens)", "RECORDED VALUE": "0.098 µM"}

As a next step, examine the compound that follows.
# IC50 measured on Cytochrome P450 2D6 (Homo sapiens) for item NC1CN(c2cc(-c3cccc(S(=O)(=O)N4CCOCC4)c3)ncn2)CC1c1cc(F)c(F)cc1F (centres undefined) = > 10 µM

###

- ASSAY OVERVIEW: Oral bioavailability in dog at 2.5 mg/kg, po
- Format: ADME, organism-based, Canis lupus familiaris
- SETTINGS: in vivo
QUANTITY MEASURED: bioavailability (%)
Express the result in % but write the number alone.

// bioavailability lookup, compound = CS(=O)(=O)c1cccc(-c2ncnc(N3CC(N)C(c4cc(F)c(F)cc4F)C3)n2)c1 (stereo unspecified) , result: 100

###

- ASSAY OVERVIEW: Half life in dog at 2.5 mg/kg, po
- Format: ADME, organism-based, Canis lupus familiaris
- Design: dose 2.5 mg/kg, route oral
- SETTINGS: in vivo
QUANTITY MEASURED: half-life (h)
Give the value in h but do not write h after it.

half-life recorded for this compound, CS(=O)(=O)c1cccc(-c2ncnc(N3CC(N)C(c4cc(F)c(F)cc4F)C3)n2)c1 (stereo unspecified) , is 14.9

###

- ASSAY OVERVIEW: Half life in Sprague-Dawley rat at 5 mg/kg, po
- Type: ADME, organism-based
- Set-up: dose 5 mg/kg, route oral
- SETTINGS: in vivo
QUANTITY MEASURED: half-life (h)

{"COMPOUND": "CS(=O)(=O)c1cccc(-c2ncnc(N3CC(N)C(c4cc(F)c(F)cc4F)C3)n2)c1 (stereo not given)", "half-life / h": 5.5}
{"COMPOUND": "CS(=O)(=O)c1cccc(-c2cc(N3CC(N)C(c4cc(F)c(F)cc4F)C3)ncn2)c1 (stereo not given)", "half-life / h": 3.8}
{"COMPOUND": "CN(C)C(=O)c1cccc(-c2cc(N3CC(N)C(c4cc(F)c(F)cc4F)C3)ncn2)c1 (stereo not given)", "half-life / h": 3.5}

a: NC1CN(c2cc(-c3cccc(C(=O)O)c3)ncn2)CC1c1cc(F)c(F)cc1F (stereo not given)
b: NC1CN(c2cc(-c3cccc(S(=O)(=O)N4CCOCC4)c3)ncn2)CC1c1cc(F)c(F)cc1F (stereo not given)
Exercise: Kindly compare a with b and tell me which has the lower half-life figure. Please reply using the label of the selected record.
Solution: b
(b: 1.1 h, a: 6.8 h)

###

Form: system (Cytochrome P450 3A4 (Homo sapiens, UniProt P08684)), quantity (pIC50), values below.
pIC50: −log10 of the molar value.

{"COMPOUND": "NC1CN(c2cc(-c3cccc(C(=O)O)c3)ncn2)CC1c1cc(F)c(F)cc1F (stereo not drawn)", "RECORDED VALUE": "< 5.00"}
{"COMPOUND": "CS(=O)(=O)c1cccc(-c2ncnc(N3CC(N)C(c4cc(F)c(F)cc4F)C3)n2)c1 (stereo not drawn)", "RECORDED VALUE": "< 5.00"}

Now look at this entry.
Entry NC1CN(c2cc(-c3ccsc3)ncn2)CC1c1cc(F)c(F)cc1F (racemic) , Cytochrome P450 3A4 (Homo sapiens, UniProt P08684) data, pIC50 value: < 5.00

###

- ASSAY OVERVIEW: Plasma clearance in dog at 2.5 mg/kg, po
- Type: ADME, organism-based, Canis lupus familiaris
- Design: dose 2.5 mg/kg, route oral
QUANTITY MEASURED: CL/F (mL/min/kg)
Write the answer as a number in mL/min/kg, unit excluded.

molecule CS(=O)(=O)c1cccc(-c2ncnc(N3CC(N)C(c4cc(F)c(F)cc4F)C3)n2)c1 (stereo unspecified) , CL/F observed: 3.5

Entry source: ChEMBL document CHEMBL1139138
